Test system: Ralstonia solanacearum
assayInfo: Antibacterial activity against Ralstonia solanacearum assessed as growth inhibition by turbidometer test (beneficial crop tobacco plant)
Format: functional, organism-based
cond: Ralstonia solanacearum; read-out: EC50
Recorded EC50 values for a group of molecules are listed next.
measuredMetric: EC50

INSERT INTO assay_data (smilesstr, targetsystem, measuredmetric, measured) VALUES
  ('CCS(=O)(=O)c1nnc(-c2cccc(F)c2)o1', 'Ralstonia solanacearum', 'EC50', '47.9 µg/mL'),
  ('CCS(=O)(=O)c1nnc(-c2ccc(F)cc2)o1', 'Ralstonia solanacearum', 'EC50', '32.1 µg/mL'),
  ('CCS(=O)(=O)c1nnc(-c2ccccc2)o1', 'Ralstonia solanacearum', 'EC50', '39.8 µg/mL'),
  ('CCS(=O)(=O)c1nnc(-c2ccc(F)cc2F)o1', 'Ralstonia solanacearum', 'EC50', '60.3 µg/mL');
